- system-under-test: UniProt A0A0H2XJ46
- test-protocol: nanoDSF thermal shift assay, SaSiaT
- Format: binding
- condition-label: SaSiaT, experiment 3, first capillary, 1.25 mM
attribute-measured: Tm 3 (°C)
Numbers only; they are read as °C.

Examples from the recorded data:
CC(=O)NC1C(OCc2cc(F)cc(F)c2)CC(O)(C(=O)O)OC1C(O)C(O)CO (stereo not shown)    57.2
CC(=O)NC1C(OCc2ccc(Br)cc2)CC(O)(C(=O)O)OC1C(O)C(O)CO (stereo not shown)    54.5
CC(=O)N[C@H]1[C@H]([C@H](O)[C@H](O)CO)OC(O)(C(=O)O)C[C@@H]1O (stereo partly shown) [Neu5Ac, 5-N-acetyl neuraminic acid, reference compound]    51.6

Please find the next molecule below.
Tested system UniProt A0A0H2XJ46; Tm 3 recorded for CC(C)C(=O)NC1C(O)CC(O)(C(=O)O)OC1C(O)C(O)CO (stereo not shown) was 45.3

* * *

- system-under-test: SaSiaT (Staphylococcus aureus)
- Sequence (A0A0H2XJ46 entry or part of it): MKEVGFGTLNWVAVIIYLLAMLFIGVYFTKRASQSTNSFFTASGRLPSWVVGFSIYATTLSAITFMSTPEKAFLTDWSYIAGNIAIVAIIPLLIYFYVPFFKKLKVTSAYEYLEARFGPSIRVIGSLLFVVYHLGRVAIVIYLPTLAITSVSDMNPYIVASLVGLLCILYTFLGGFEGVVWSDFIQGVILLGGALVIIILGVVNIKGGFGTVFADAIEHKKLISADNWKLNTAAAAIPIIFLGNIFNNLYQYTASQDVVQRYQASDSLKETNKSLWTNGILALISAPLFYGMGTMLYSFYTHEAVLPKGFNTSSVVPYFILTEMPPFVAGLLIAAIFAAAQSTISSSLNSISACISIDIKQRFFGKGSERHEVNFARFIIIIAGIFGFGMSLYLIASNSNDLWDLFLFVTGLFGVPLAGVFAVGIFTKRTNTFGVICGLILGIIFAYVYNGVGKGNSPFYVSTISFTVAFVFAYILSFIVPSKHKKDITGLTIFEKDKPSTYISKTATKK
- test-protocol: nanoDSF thermal shift assay, SaSiaT
- Type: binding
- condition-label: SaSiaT, experiment 3, first capillary, 1.25 mM
attribute-measured: Tm 3 (°C)
Numbers only; they are read as °C.

CC(=O)NC1C(OCc2ccc(C#N)cc2)CC(O)(C(=O)O)OC1C(O)C(O)CO (stereo not drawn) [Compound 3d]    52.0

Tm 3 reported for this compound [N-]=[N+]=NCC(=O)N[C@H]1[C@H]([C@H](O)[C@H](O)CO)O[C@@](O)(C(=O)O)C[C@@H]1O [Compound 6h, reference compound] : 52.8

Tm 3 reported for this compound CC(=O)NC1C(O)CC(O)(C(=O)O)OC1C(O)C(O)CN=[N+]=[N-] (stereo not drawn) [Compound 8g] : 48.6

* * *

- system-under-test: PmSiaT (Proteus mirabilis, UniProt B4EZY7)
- Construct: made in house
- Sequence (B4EZY7 whole entry): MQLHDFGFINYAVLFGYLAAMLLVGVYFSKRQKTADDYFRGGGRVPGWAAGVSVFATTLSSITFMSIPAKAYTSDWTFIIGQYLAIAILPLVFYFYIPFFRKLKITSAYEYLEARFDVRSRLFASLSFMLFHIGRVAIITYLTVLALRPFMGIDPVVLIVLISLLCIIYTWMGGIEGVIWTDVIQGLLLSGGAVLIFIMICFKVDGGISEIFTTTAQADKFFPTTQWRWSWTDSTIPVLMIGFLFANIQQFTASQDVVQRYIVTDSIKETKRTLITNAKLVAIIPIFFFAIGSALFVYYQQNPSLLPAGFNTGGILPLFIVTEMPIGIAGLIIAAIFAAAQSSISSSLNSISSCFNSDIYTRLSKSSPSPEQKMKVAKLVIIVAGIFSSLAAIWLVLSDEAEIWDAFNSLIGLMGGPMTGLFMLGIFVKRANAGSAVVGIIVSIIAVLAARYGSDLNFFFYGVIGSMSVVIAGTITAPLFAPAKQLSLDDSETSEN
- test-protocol: Isothermal titration calorimetry, PmSiaT
- Assay type: binding
- condition-label: ITC
- Description: The binding thermodynamic analysis performed via isothermal titration calorimetry (ITC) provides insights into dissociation constants (Kd) and the binding driving forces of compounds 3a, 3e, and 3f with PmSiaT and SaSiaT. Isothermal titration calorimetric experiments were performed on an ITC200 instrument (MicroCal, Northampton, USA) at 25 °C using standard instrument settings (reference power of 6 μcal s^–1, stirring speed of 750 rpm, feedback mode high, and filter period of 2 s). […]
attribute-measured: PmSiaT -TΔS° (kcal/mol)
Numbers only; they are read as kcal/mol.

CC(=O)N[C@H]1[C@H]([C@H](O)[C@H](O)CO)OC(O)(C(=O)O)C[C@@H]1O (stereo partly shown) [Neu5Ac, 5-N-acetyl neuraminic acid, reference compound]    -12.6
CC(=O)NC1C(OCc2cc(Br)cc(Br)c2)CC(O)(C(=O)O)OC1C(O)C(O)CO (stereo not shown)    -17.8
CC(=O)NC1C(OCc2cc(F)cc(F)c2)CC(O)(C(=O)O)OC1C(O)C(O)CO (stereo not shown)    -15.7

Please find the next compound below.
PmSiaT -TΔS° reported for this compound CC(=O)NC1C(OCc2ccccc2)CC(O)(C(=O)O)OC1C(O)C(O)CO (stereo not shown) : -13.9

* * *

- system-under-test: UniProtKB A0A0H2XJ46
- test-protocol: nanoDSF thermal shift assay, SaSiaT
- Format: binding
- condition-label: SaSiaT, experiment 3, first capillary, 1.25 mM
attribute-measured: Tm 3

Examples from the recorded data:
CSCC(O)C(O)C1OC(O)(C(=O)O)CC(O)C1NC(C)=O (stereo not drawn) [Compound 8a]    51.3 °C
CC(=O)NC1C(OCc2cc(Br)cc(Br)c2)CC(O)(C(=O)O)OC1C(O)C(O)CO (stereo not drawn) [Compound 3f]    54.4 °C
CC(=O)NC1C(O)CC(O)(C(=O)O)OC1C(O)C(C)O (stereo not drawn) [Compound 8f]    42.8 °C
CC(=O)NC1C(OCc2ccc(F)cc2)CC(O)(C(=O)O)OC1C(O)C(O)CO (stereo not drawn) [Compound 3b]    56.9 °C
CC(=O)NC1C(O)CC(O)(C(=O)O)OC1C(O)C(O)CI (stereo not drawn) [Compound 8e]    49.9 °C

Tm 3 reported for this compound CCC(=O)NC1C(O)CC(O)(C(=O)O)OC1C(O)C(O)CO (stereo not drawn) [Compound 6a] : 42.3 °C

Tm 3 reported for this compound CC(=O)NC1C(O)CC(O)(C(=O)O)OC1C(O)C(O)CCl (stereo not drawn) [Compound 8c] : 49.8 °C

Tm 3 reported for this compound O=C(CF)NC1C(O)CC(O)(C(=O)O)OC1C(O)C(O)CO (stereo not drawn) [Compound 6f] : 52.1 °C

Tm 3 reported for this compound CC(C)(C)C(=O)NC1C(O)CC(O)(C(=O)O)OC1C(O)C(O)CO (stereo not drawn) [Compound 6c] : 43.9 °C
